Listing: Percent Effect of selected compounds
target: Ubiquitin-activating enzyme e1, putative (Leishmania donovani (strain BPK282A1)) (UniProt E9BSI1); assay: Leishmania donovani Ubiquitin Activating Enzyme (LdE1); assay type: functional; parameters: scale not given: direction of the effect not stated beside the values; settings: 30 µM
Sequence (E9BSI1 as listed by the source): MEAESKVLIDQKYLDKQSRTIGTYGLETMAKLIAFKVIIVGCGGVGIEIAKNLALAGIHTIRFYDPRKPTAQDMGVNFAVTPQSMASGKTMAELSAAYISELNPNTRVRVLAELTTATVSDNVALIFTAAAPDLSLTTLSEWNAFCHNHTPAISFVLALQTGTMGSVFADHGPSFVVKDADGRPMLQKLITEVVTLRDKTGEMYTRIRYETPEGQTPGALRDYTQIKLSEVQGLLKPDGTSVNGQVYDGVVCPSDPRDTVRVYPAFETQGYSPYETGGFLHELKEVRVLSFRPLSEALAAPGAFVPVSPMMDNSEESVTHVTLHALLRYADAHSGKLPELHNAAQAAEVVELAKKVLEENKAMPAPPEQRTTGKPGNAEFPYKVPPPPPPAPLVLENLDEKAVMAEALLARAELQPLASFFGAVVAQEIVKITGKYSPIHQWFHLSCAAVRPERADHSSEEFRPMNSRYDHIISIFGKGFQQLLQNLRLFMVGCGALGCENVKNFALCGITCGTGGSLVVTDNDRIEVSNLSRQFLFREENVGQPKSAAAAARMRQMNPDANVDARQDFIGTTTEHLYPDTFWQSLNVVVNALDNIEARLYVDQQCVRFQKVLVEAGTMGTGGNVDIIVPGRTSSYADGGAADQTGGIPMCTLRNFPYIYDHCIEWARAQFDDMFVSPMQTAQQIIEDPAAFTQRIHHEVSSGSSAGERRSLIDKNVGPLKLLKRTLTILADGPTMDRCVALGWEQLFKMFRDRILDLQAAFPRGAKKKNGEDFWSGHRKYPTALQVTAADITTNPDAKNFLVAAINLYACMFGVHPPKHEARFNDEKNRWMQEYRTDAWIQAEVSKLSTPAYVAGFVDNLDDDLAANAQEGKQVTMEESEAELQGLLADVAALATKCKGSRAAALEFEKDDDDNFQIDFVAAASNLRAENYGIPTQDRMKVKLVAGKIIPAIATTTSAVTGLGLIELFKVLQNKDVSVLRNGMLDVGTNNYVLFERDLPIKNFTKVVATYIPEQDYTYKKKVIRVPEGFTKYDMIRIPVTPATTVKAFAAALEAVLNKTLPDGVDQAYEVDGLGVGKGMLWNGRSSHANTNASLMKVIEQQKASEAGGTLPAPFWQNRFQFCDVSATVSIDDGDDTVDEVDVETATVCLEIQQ
Entries with a potency or affinity are not part of this list.
Record the value in %, omitting the unit from your answer.

These solved cases illustrate the format of a correct answer.
- Compound: "O=C1N(Cc2ccc(F)c(F)c2)CCCC12CCN(C1CCSCC1)C2 (stereo not given)"
  Units Label: "%"
  Reported Value: -8
- Compound: "COc1ncc(-c2nccn2CCN(C)C)cn1"
  Units Label: "%"
  Reported Value: -2.7
- Compound: "Cc1cnn(CCNCC(O)COc2ccc(Cl)cc2)c1 (stereo not given)"
  Units Label: "%"
  Reported Value: 10.1

Qu. Need Percent Effect, item Cc1cccc(CS(=O)(=O)CC(=O)NCCCOC(C)C)c1
Ans. 18.2

Qu. Entry COCC1CN(C(=O)COc2ccccc2)Cc2cn(C)nc21 (stereo not given) : reported Percent Effect = ?
Ans. -2.6
